The origin of these recorded values is ChEMBL document CHEMBL4028802.

DILI_severity_class: recorded values
- Organism: Homo sapiens
- assayName: Liver toxicity in human assessed as induction of drug-induced liver injury by measuring severity class index; also: key of the grades not given here
Non-standard residues stand in square brackets, D forms with d. Residues, ends and D or L forms follow the SMILES beside them. pGlu = O=C1CC[C@@H](C(=O)O)N1
propertyMeasured: DILI_severity_class

compound: NS(=O)(=O)c1cc2c(cc1C(F)(F)F)NC(Cc1ccccc1)NS2(=O)=O (configuration not stated) [BENDROFLUMETHIAZIDE]
measurement: 5
//
compound: CN/C(=N/CCSCc1nc[nH]c1C)NC#N [CIMETIDINE]
measurement: 2
//
compound: Cc1cc2c(s1)Nc1ccccc1N=C2N1CCN(C)CC1 [OLANZAPINE]
measurement: 3
//
compound: CC(C(=O)O)c1cccc(Oc2ccccc2)c1 (configuration not stated) [FENOPROFEN]
measurement: 8
//
compound: Cn1c(=O)c2c(ncn2CC(O)CO)n(C)c1=O (configuration not stated) [DYPHYLLINE]
measurement: 0
//
compound: CC1(C)O[C@@H]2[C@@H](CO[C@@]3(COS(N)(=O)=O)OC(C)(C)O[C@@H]23)O1 [TOPIRAMATE]
measurement: 3
//
compound: CCNC(=O)[C@@H]1CCCN1C(=O)[C@H](CCCNC(=N)N)NC(=O)[C@H](CC(C)C)NC(=O)[C@H](CC(C)C)NC(=O)[C@H](Cc1ccc(O)cc1)NC(=O)[C@H](CO)NC(=O)[C@H](Cc1c[nH]c2ccccc12)NC(=O)[C@H](Cc1c[nH]cn1)NC(=O)[C@@H]1CCC(=O)N1 ([pGlu]HWSYLLRP-NHEt)
measurement: 3
